assay: Displacement of 5(6)-FAM-mannoside from Escherichia coli FimH by fluorescence polarization assay
Note that class boundaries on EC50 are lower band = under 80 nM, central band = from 80 nM up to 100 nM, upper band = 100 nM and over

Reference set, count: 5
| compound | category-label |
| --- | --- |
| COC(=O)c1ccc(-c2ccc(O[C@H]3O[C@H](CO)[C@@H](O)[C@H](O)[C@@H]3O)cc2)cc1 | lower band |
| CCCCCCCO[C@H]1O[C@H](CO)[C@@H](O)[C@H](O)[C@@H]1O | central band |
| CC(=O)Nc1ccc(O[C@H]2O[C@H](CO)[C@@H](O)[C@H](O)[C@@H]2O)cc1 | upper band |
| CCCCO[C@H]1O[C@H](CO)[C@@H](O)[C@H](O)[C@@H]1O [BUTYLALPHAMAN] | upper band |
| CC(=O)Nc1cccc(O[C@H]2O[C@H](CO)[C@@H](O)[C@H](O)[C@@H]2O)c1 | upper band |

Into which category would you place COC(=O)c1ccc(O[C@H]2O[C@H](CO)[C@@H](O)[C@H](O)[C@@H]2O)cc1 ?
lower band

Into which category would you place OC[C@H]1O[C@H](Oc2ccccc2)[C@@H](O)[C@@H](O)[C@@H]1O ?
upper band

Into which category would you place CC(=O)Nc1cccc(-c2ccc(O[C@H]3O[C@H](CO)[C@@H](O)[C@H](O)[C@@H]3O)cc2)c1 ?
lower band
